# System: XIP peptide (Xip251-270)
# measurement_notes: compounds binding XIP fragment 251-270 – biochemical, small-molecule microarray, fluorescence 635/667 nm, 0.5 µg/mL protein, primary screen (AID 1183)
# assay_setup: fluorescence 635 nm, higher = more signal
quantity_measured: composite z-score

Query: Which value of composite z-score has been reported for CCN(CC)c1ccc(N2CC=CC34O[C@@H]5C=CCCOC(=O)C5[C@H]3C(=O)N(C(C)CO)[C@@H]4C2=O)cc1 (stereo not given in full) in the records?
Result: 0.77

Query: Item: `COCCOC(=O)N1C(=O)[C@@]2(c3ccccc31)[C@H](C(=O)N1CCN(c3ncccn3)CC1)[C@H]1C(=O)O[C@H](c3ccccc3)[C@H](c3ccccc3)N1[C@@H]2c1ccccc1OCCO`
Result: 0.597

Query: Item: COc1ccc(NN2C(C(O)c3ccc(I)cc3)C=CC3C(=O)N(C4CCCCC4)C(=O)C32)cc1 (stereo not given)
Result: 0.618

Query: Item: `COC(=O)[C@@]1(Cc2ccc(OC)cc2)[C@H]2c3cc(C(=O)N4CCCC4)n(CCn4cc([N+](=O)[O-])nc4C)c3C[C@H]2CN1C(=O)c1ccccc1`
Result: 0.359

Query: Item: `COC(=O)[C@H](Cc1ccc(O)cc1)N[C@@H](/C=C/C1CC1)[C@H](O)Cc1ccccc1`
Result: -0.0324

Query: Item: `CCOC(=O)C1=CC[C@@H](c2ccc(OC)cc2)N(S(=O)(=O)c2ccc(C)cc2)[C@H]1CC`
Result: 0.463

Query: Item: `CN(C)CCCC[C@@H]1NC(=O)[C@@H]2C[C@H](C(=O)NCCCCCCNC(=O)CS)[C@H](c3ccc(O)cc3)N2C1=O`
Result: 0.859

Query: Item: C[C@@H]1NC(=O)C([C@@H](C)OCc2ccccc2)NC(=O)[C@@]23C(=O)N[C@@H](Cc4ccccc4)C2[C@H](C)[C@@]2(C)O[C@H]2C3/C=C/C/C=C\CNC1=O (stereo not given in full)
Result: -0.458

Query: Item: `C=C(COC)C(=O)CC[C@@H](OC(=O)c1ccccc1-c1ccccc1C(=O)O)c1ccc(OCCO)cc1`
Result: 0.666

Query: Item: `CN(C)CCCCNC(=O)[C@H]1C[C@H]2C(=O)NCC(=O)N2[C@H]1c1ccc(O)cc1`
Result: 0.815

Query: Item: `C[C@@H]1ON(c2ccc(I)cc2)[C@H](c2cccc(NC(=O)OCC3c4ccccc4-c4ccccc43)c2)[C@H]1C(=O)N1C(=O)OC[C@H]1Cc1ccccc1`
Result: 0.771

Query: Item: COC(=O)C1=CC(CCCO)=CC(c2cccs2)N(Cc2cc3c(cc2Br)OCO3)C=C1C(=O)OC (stereo not given)
Result: 0.763

Query: Item: `C=CC[C@@]1(C(=O)OC)N=C(c2ccc(OCCCO)cc2)O[C@@H]1c1ccccc1N=[N+]=[N-]`
Result: 0.852

Query: Item: `COc1ccc(CCNC(=O)[C@@H]2c3ccccc3C(=O)N(Cc3ccccc3OC)[C@H]2c2ccc(CO)cc2)cc1`
Result: 0.393

Query: Item: `COCCCN1C(=O)[C@@]2(c3ccc([N+](=O)[O-])cc3)CC(=O)N(CC34CC5CC(CC(C5)C3)C4)[C@@H]2c2ccc(CO)cc21`
Result: 0.578

Cited source: PubChem BioAssay
